Molecular target: T1, His-tagged CEACAM1 (human, UniProt P13688 35-428)
T1 construct: 45 kDa SPR analyte; also called CEACAM1-HIS; CEACAM1 analyte
T1 sequence: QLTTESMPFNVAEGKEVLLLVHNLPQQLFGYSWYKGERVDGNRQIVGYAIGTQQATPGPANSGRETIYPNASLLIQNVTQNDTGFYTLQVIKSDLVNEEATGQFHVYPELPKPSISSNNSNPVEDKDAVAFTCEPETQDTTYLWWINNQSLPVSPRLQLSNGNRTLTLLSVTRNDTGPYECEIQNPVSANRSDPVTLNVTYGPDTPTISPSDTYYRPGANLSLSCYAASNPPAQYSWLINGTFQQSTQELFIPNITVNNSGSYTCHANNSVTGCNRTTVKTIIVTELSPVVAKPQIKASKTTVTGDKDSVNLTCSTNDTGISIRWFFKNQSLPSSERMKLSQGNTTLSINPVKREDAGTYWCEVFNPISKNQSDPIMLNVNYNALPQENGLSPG
Assay: SPR multi-cycle, IgG captured

binder	relative KD to VH0/Vκ0
VH2/Vκ8 (antibody, IgG4, V domains shown, IgG4 (S241P), kappa) VH: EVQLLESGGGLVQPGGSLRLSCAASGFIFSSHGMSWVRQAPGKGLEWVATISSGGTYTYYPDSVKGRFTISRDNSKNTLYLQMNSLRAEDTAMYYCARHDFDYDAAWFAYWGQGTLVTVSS VL: EIVLTQSPATLSLSPGERATLSCRANSSVSYMYWYQQKPGQAPRPWIYLTSNRATGVPARFSGSGSGTDYTLTISSLEPEDFAVYYCQQWSSNPPTFGQGTKLEIK	2.3

Provenance of the data: patent US20250074980A1
